assay: in vitro; conditions: human, wild type haploid (HAP1) cells
REPORTED_PROPERTY: cytotoxicity at 6 h, 0.3 nM (%)
Unit % implied. Number only.

Sample CC(C)C[C@H](NC(=O)[C@H](Cc1ccccc1)NC(=O)c1cnccn1)B(O)O [bortezomib] ; cytotoxicity at 6 h, 0.3 nM observed: 4.7
